- Assay Protocol: Protein binding in mouse plasma at 5 uM after 4 hrs by rapid equilibrium dialysis based LC-MS/MS analysis
- Type: ADME, cell-free
- Conditions: read-out: PPB (converted)
Endpoint: fraction unbound at 4 h, 5 µM
Write the number on its own, no unit after it.

Query block: Could you share which fraction unbound at 4 h, 5 µM value was measured for CC1(OC(=O)N2CCC3(CC2)C[C@@H]3CNC(=O)N2Cc3ccncc3C2)COC1 ?
Result block: 0.47

----------
- System Tested: UniProt:P08684
- Assay Protocol: Reversible inhibition of CYP3A4 in human liver microsomes using testosterone as substrate in presence of NADPH by LC-MS/MS analysis
- Assay type: ADME
pIC50: −log10 of the molar value.
Endpoint: pIC50

Query block: Which pIC50 reading was recorded for the molecule CC1(OC(=O)N2CCC3(CC2)C[C@@H]3CNC(=O)N2Cc3ccncc3C2)COC1 ?
Result block: < 5.00

----------
What follows is a collection of pIC50 values obtained with Cytochrome P450 2D6 (Homo sapiens, UniProt P10635).
Sequence (P10635 whole entry): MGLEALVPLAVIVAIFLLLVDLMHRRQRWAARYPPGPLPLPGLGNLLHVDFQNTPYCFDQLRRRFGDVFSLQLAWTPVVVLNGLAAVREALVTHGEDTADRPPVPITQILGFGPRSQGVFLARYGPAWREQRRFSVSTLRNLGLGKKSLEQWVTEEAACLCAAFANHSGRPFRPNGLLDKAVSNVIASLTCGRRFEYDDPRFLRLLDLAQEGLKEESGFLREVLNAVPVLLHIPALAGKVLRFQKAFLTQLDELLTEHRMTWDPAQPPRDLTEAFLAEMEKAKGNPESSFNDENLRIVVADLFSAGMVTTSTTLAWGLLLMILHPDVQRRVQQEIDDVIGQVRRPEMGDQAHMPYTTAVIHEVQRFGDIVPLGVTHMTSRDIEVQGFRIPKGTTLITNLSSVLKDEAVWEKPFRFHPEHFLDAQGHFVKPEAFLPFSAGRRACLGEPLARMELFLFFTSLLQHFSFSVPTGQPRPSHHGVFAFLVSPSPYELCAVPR
pIC50: −log10 of the molar value.

molecule=O=C(NCc1ccc(S(=O)(=O)c2cccc(C(F)(F)F)c2)cc1)c1cnc2[nH]ncc2c1 endpoint=pIC50 result="< 5.00"

Pending molecule:
Query block: Lookup: pIC50 / Cytochrome P450 2D6 (Homo sapiens, UniProt P10635) / O=C(/C=C/c1cccnc1)NCCCCC1CCN(C(=O)c2ccccc2)CC1 [DAPORINAD]
Result block: < 5.00

----------
- System Tested: Cytochrome P450 3A4 (Homo sapiens)
Endpoint: IC50 (µM)
Answer format: numeric, µM implied, no suffix.

Query block: What value of measured IC50 is listed for O=C(NCc1ccc(S(=O)(=O)c2cccc(C(F)(F)F)c2)cc1)c1cnc2[nH]ncc2c1 ?
Result block: 9

----------
- Assay Protocol: Apparent permeability from basolateral to apical side in MDCK cells at 10 uM by LC/MS/MS analysis
- Type: ADME, cell-based, Canis lupus familiaris
- Conditions: dog
Endpoint: Papp B→A at 10 µM (×10⁻⁶ cm/s)
Give your result in ×10⁻⁶ cm/s as a bare value.

Example entries and their recorded answers appear below.
molecule="CC1(OC(=O)N2CCC3(CC2)CC3CNC(=O)N2Cc3ccncc3C2)COC1 (racemic)" endpoint="Papp B→A at 10 µM" numeric_value=16
molecule="Cc1nn(C)c(C)c1C(=O)N1CCC2(CC1)CC2CNC(=O)N1Cc2ccncc2C1 (racemic)" endpoint="Papp B→A at 10 µM" numeric_value=1.9
molecule=CC1(OC(=O)N2CCC3(CC2)C[C@H]3CNC(=O)N2Cc3ccncc3C2)COC1 endpoint="Papp B→A at 10 µM" numeric_value=15
molecule=O=C(NCc1cccnc1)Nc1ccc(S(=O)(=O)N2CCC3(CCNC3)CC2)cc1 endpoint="Papp B→A at 10 µM" numeric_value=0.43
molecule="CC(C)(C)OC(=O)N1CCC2(CC1)CC2CNC(=O)c1cc2ccncc2o1 (racemic)" endpoint="Papp B→A at 10 µM" numeric_value=15

Query block: Can you share its Papp B→A at 10 µM? I mean this molecule: CC1(O)CC(CC(=O)N2CCC3(CC2)CC3CNC(=O)N2Cc3ccncc3C2)C1 (racemic)
Result block: 1

Query block: # get_value(readout='Papp B→A at 10 µM', item= O=C(NCC1CC12CCN(C(=O)c1ccccc1)CC2)N1Cc2ccncc2C1 (racemic) )
Result block: 19

Query block: Dear colleague, I am looking for the recorded Papp B→A at 10 µM of the following molecule: O=C(CCC1CCOCC1)N1CCC2(CC1)CC2CNC(=O)N1Cc2ccncc2C1 (racemic)
Result block: 11

----------
Listed here: items and their measured pIC50.
- System Tested: UniProt P05177
pIC50: −log10 of the molar value.

smiles_string=O=C(NCc1ccc(S(=O)(=O)c2cccc(C(F)(F)F)c2)cc1)c1cnc2[nH]ncc2c1 result="< 5.00"

Note: attention shifts to another entry.
Query block: Form field - read-out: pIC50; system: UniProt P05177; submitted item: N#CN=C(NCCCCCCOc1ccc(Cl)cc1)Nc1ccncc1
Result block: < 5.00

----------
pIC50: −log10 of the molar value.
The next entries give measured pIC50 for Cytochrome P450 2C9 (Homo sapiens).

Sample records with pIC50:
molecule="CC1(OC(=O)N2CCC3(CC2)CC3CNC(=O)N2Cc3ccncc3C2)CCC1 (racemic)" result="< 5.00"
molecule=Nc1cc2[nH]c(C(=O)NCc3ccc(S(=O)(=O)c4cc(F)cc(F)c4)cc3)cc2cn1 result="< 5.00"
molecule=O=C(NCC1CCCCC1)c1cc2cnccc2[nH]1 result="< 5.00"
molecule=CC(C)(C)OC(=O)N1CCC(CCNC(=O)c2cc3cnccc3[nH]2)CC1 result="< 5.00"

Next:
Query block: Record request: pIC50 value, item CC1(CC(=O)N2CCC3(CC2)CC3CNC(=O)N2Cc3ccncc3C2)COC1 (racemic)
Result block: < 5.00

----------
- Assay Protocol: Kinetic solubility of the compound in PBS at 200 uM at pH 7.4 after 24 hrs by liquid chromatography-chemiluminescence nitrogen detection assay
- Type: physicochemical
- Conditions: read-out: Kinetic_solubility
Endpoint: solubility kinetic at 24 h, 200 µM

Query block: Any idea what solubility kinetic at 24 h, 200 µM was measured for CC1(OC(=O)N2CCC3(CC2)C[C@@H]3CNC(=O)N2Cc3ccncc3C2)COC1 ?
Result block: > 100 µM

----------
- System Tested: Cytochrome P450 3A4 (Homo sapiens, UniProt P08684)
- Sequence (P08684 whole entry): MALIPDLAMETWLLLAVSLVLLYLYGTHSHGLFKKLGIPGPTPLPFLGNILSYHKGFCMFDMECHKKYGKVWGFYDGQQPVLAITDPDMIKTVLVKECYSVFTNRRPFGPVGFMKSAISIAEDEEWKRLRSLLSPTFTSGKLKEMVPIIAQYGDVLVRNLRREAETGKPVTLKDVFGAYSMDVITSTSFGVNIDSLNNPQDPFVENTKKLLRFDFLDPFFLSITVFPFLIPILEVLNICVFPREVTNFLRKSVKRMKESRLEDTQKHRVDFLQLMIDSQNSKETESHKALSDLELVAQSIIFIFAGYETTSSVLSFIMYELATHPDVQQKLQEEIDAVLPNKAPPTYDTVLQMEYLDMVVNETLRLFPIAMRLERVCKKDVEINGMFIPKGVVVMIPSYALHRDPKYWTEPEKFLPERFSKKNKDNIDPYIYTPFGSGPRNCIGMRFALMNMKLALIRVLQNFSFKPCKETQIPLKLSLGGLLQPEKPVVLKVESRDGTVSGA
- Assay Protocol: Inhibition of CYP3A4 in human liver microsomes using testosterone as substrate in presence of NADPH by LC-MS/MS analysis
- Type: ADME
Endpoint: pIC50
Formally, pIC50 is defined as -log10 of the concentration c, with c in mol/L.

Query block: Record lookup: for Cytochrome P450 3A4 (Homo sapiens, UniProt P08684), what pIC50 belongs to O=C(NCc1ccc(S(=O)(=O)c2cccc(C(F)(F)F)c2)cc1)c1cnc2[nH]ncc2c1 ?
Result block: 5.10

----------
- System Tested: UniProt P05177
- Sequence (P05177 whole entry): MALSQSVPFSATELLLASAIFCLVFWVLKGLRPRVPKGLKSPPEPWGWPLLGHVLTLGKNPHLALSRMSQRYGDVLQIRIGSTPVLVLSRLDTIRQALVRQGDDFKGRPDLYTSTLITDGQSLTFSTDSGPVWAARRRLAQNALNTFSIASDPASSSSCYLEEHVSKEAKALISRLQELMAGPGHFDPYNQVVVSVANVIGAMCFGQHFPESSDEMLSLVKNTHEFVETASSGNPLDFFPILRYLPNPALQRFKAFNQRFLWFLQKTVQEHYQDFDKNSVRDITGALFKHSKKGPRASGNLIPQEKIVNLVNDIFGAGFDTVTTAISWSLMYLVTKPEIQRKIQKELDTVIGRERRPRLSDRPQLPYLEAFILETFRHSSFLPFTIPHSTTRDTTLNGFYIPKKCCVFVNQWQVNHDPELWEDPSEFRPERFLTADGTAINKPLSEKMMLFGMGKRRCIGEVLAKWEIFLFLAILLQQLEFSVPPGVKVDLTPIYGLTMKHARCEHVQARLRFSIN
- Assay Protocol: Reversible inhibition of CYP1A2 in human liver microsomes using […] as substrate in presence of NADPH by LC-MS/MS analysis
- Type: ADME
Endpoint: IC50

Query block: Could you share what IC50 was measured for CC1(OC(=O)N2CCC3(CC2)C[C@@H]3CNC(=O)N2Cc3ccncc3C2)COC1 , tested on UniProt P05177?
Result block: > 10 µM

----------
- Assay Protocol: Thermodynamic solubility of the compound in PBS at pH 7.4 after 24 hrs by liquid chromatography-chemiluminescence nitrogen detection assay
- Type: physicochemical
- Conditions: read-out: Therm_solubility
Endpoint: solubility thermodynamic at 24 h

Query block: State the recorded solubility thermodynamic at 24 h for this entry: CC1(OC(=O)N2CCC3(CC2)C[C@@H]3CNC(=O)N2Cc3ccncc3C2)COC1
Result block: > 6 mM

----------
- System Tested: Cytochrome P450 2C9 (Homo sapiens, UniProt P11712)
- Sequence (P11712 whole entry): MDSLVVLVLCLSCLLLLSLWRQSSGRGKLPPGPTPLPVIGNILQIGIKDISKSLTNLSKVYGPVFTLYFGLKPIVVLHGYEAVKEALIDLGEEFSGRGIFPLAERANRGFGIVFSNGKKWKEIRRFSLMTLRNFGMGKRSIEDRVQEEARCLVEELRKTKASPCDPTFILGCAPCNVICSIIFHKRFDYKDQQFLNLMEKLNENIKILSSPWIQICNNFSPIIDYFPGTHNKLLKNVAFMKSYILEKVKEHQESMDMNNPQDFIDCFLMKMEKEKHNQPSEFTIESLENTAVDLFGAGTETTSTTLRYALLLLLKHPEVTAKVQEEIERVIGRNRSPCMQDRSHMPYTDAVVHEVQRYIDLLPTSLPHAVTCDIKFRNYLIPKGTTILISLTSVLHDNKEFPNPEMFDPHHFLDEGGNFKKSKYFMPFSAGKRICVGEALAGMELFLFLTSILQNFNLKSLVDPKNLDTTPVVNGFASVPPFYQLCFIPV
pIC50: −log10 of the molar value.
Endpoint: pIC50

The cases that follow already have their pIC50 on record.
molecule="CC(C)CC(=O)N1CCC2(CC1)CC2CNC(=O)N1Cc2ccncc2C1 (racemic)" endpoint=pIC50 result="< 5.00"
molecule="CC1(OC(=O)N2CCC3(CC2)CC3CNC(=O)N2Cc3ccncc3C2)COC1 (racemic)" endpoint=pIC50 result="< 5.00"

As a next step, examine the molecule that follows.
Query block: Any idea what its pIC50 is? The molecule is Cc1nn(C)c(C)c1C(=O)N1CCC2(CC1)CC2CNC(=O)N1Cc2ccncc2C1 (racemic)
Result block: < 5.00

----------
- Assay Protocol: Apparent permeability from apical to basolateral side in MDCK cells at 10 uM by LC/MS/MS analysis
- Assay type: ADME, cell-based, Canis lupus familiaris
- Conditions: dog
Each item that follows carries a reported Papp A→B at 10 µM.
Answer format: numeric, ×10⁻⁶ cm/s implied, no suffix.

compound="Cc1nc(C)c(C(=O)N2CCC3(CC2)CC3CNC(=O)N2Cc3ccncc3C2)o1 (racemic)" endpoint="Papp A→B at 10 µM" numeric_value=1.4
compound=Nc1ccc(CNC(=O)Nc2ccc(S(=O)(=O)c3ccccc3)cc2)cn1 endpoint="Papp A→B at 10 µM" numeric_value=3
compound="CN1CCC(c2ccc(C(=O)N3CCC4(CC3)CC4CNC(=O)N3Cc4ccncc4C3)cc2)CC1 (racemic)" endpoint="Papp A→B at 10 µM" numeric_value=0.2
compound=CC1(OC(=O)N2CCC3(CC2)C[C@@H]3CNC(=O)N2Cc3ccncc3C2)COC1 endpoint="Papp A→B at 10 µM" numeric_value=8.8

Consider the additional compound presented here.
Query block: Would you kindly share the measured Papp A→B at 10 µM for CC(C)(C)OC(=O)N1CCC2(CC1)CC2CNC(=O)c1cc2cnccc2[nH]1 (racemic) ?
Result block: 15

Hello, the source for this data is ChEMBL document CHEMBL3865840, in case you need it.
